Record form. Attribute: phosphorylation enrichment. Fill in for each entry.
System: c-Src
Assay: phosphorylation enrichment, bacterial display (enrichment ratio); higher = better substrate or ligand; peptides without Tyr show the background;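 further: 11-residue human phosphosite peptides and single-mutation variants displayed on the E. coli surface, counted by deep sequencing, each peptide's frequency after selection divided by its frequency in the unselected input library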;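 further: frequency after pTyr selection over input frequency; kinase dosed for 20-30% of maximal phosphorylation in three min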
Hey, just send me the number, nothing else.

Memo: GPIEVYLCPEE [E2F3_Y349] , reported phosphorylation enrichment: 0.683

Memo: LHAAAYWNALA [UQCRC2_Y182_R183W] , reported phosphorylation enrichment: 0.424

Memo: QAKRKYQEASK [FES_Y156] , reported phosphorylation enrichment: 0.488

Memo: CGTPDYIDPEI [PRKCG_Y521_A523D] , reported phosphorylation enrichment: 0.481

Memo: GVKLTYGDAQS [SLC28A1_Y404_N409S] , reported phosphorylation enrichment: 0.349

Memo: EKQVAYCPSGK [ROS1_Y2323] , reported phosphorylation enrichment: 0.358

Memo: APNEFYDGDHD [HDAC3_Y414] , reported phosphorylation enrichment: 0.574

Memo: RLAQRYLIWEC [SCN5A_Y694] , reported phosphorylation enrichment: 0.492

Memo: SVTCTYSAALN [TP53_Y126_P128A] , reported phosphorylation enrichment: 0.836

Memo: EPYELYCEMGS [CBL_Y371_Q367P] , reported phosphorylation enrichment: 4.82

Memo: DFPGIYSGYDD [POLR1C_Y33_N32I] , reported phosphorylation enrichment: 5.19

Memo: PGPQSYPTVTG [PAX5_Y299_I301T] , reported phosphorylation enrichment: 0.594

Memo: IDDNEYAFLKA [HNF4A_Y286_YF] , reported phosphorylation enrichment: 0.728

Memo: AEFGLYRAMVR [VSX2_Y222_G223R_YF] , reported phosphorylation enrichment: 0.855

Memo: QGRQTYLPQPA [DDR2_Y813] , reported phosphorylation enrichment: 0.477

Memo: NRLTDYFELLL [BBS10_Y536_P539L_YF] , reported phosphorylation enrichment: 0.619

Memo: PADRAYSWFQH [NDST1_Y711_YF] , reported phosphorylation enrichment: 0.868

Memo: QQLQGYVPSNY [FRK_Y99_I100V] , reported phosphorylation enrichment: 0.413

Memo: EEEPVYEAEPE [HCLS1_Y360] , reported phosphorylation enrichment: 0.851

Memo: RGVTRYIYNRE [HLA-DQB1_Y62_Y58G] , reported phosphorylation enrichment: 0.953

Memo: DQVEQYNKELE [LMNA_Y259_K260N] , reported phosphorylation enrichment: 0.459

Memo: GVRYIYTIDGS [DCX_Y105] , reported phosphorylation enrichment: 1.86

Memo: ISSLCYELLEE [TRPC6_Y896_R895C] , reported phosphorylation enrichment: 0.928

Memo: HFGNNYTDVLQ [MACC1_Y803_R804T_YF] , reported phosphorylation enrichment: 0.66

Memo: YADGVYLALEE [DUOX2_Y70_Q71L] , reported phosphorylation enrichment: 2.97

Memo: SAASGYSDVTD [DTX2_Y425_T421A] , reported phosphorylation enrichment: 0.338

Memo: WFISFYPQVIM [CTNS_Y143_S139F] , reported phosphorylation enrichment: 0.359

Memo: PHMQTYEVDLN [SDHB_Y61] , reported phosphorylation enrichment: 1.04

Memo: KIITDYFVDMK [MPP4_Y566_V562I_YF] , reported phosphorylation enrichment: 0.529

Memo: PMFTKYGNSLL [RPGRIP1L_Y196] , reported phosphorylation enrichment: 0.951

Memo: HYGNNYRDVLQ [MACC1_Y803] , reported phosphorylation enrichment: 0.652

###

System: AncSZ
Test: phosphorylation enrichment, bacterial display (enrichment ratio); higher = better substrate or ligand; peptides without Tyr show the background
measurement.type: phosphorylation enrichment
Hey, just send me the number, nothing else.

Summary: TNEYEYDELIV [TGM1_Y136_D132N] , AncSZ, phosphorylation enrichment = 1.45

Summary: EGNERYEGYCV [GRIA3_Y451] , AncSZ, phosphorylation enrichment = 0.982

Summary: RDMNAYIRPSP [MMAA_Y207] , AncSZ, phosphorylation enrichment = 1.03

Summary: DRKRQYELLKL [KIF4B_Y684] , AncSZ, phosphorylation enrichment = 0.682

Summary: PGPQSYPTVTG [PAX5_Y299_I301T] , AncSZ, phosphorylation enrichment = 0.819

Summary: EVVGKYSVHNA [MLH1_Y183_R182K] , AncSZ, phosphorylation enrichment = 0.612

Summary: SLEKGYELPDG [ACTC1_Y242_S241G] , AncSZ, phosphorylation enrichment = 0.994

Summary: YADGVYLALEE [DUOX2_Y70_Q71L] , AncSZ, phosphorylation enrichment = 1.66

Summary: EQPNPYMVLDI [ROCK2_Y1197_S1194P] , AncSZ, phosphorylation enrichment = 1.15

Summary: IHETTYNSIKK [ACTA1_Y281_M285K] , AncSZ, phosphorylation enrichment = 0.449

Summary: KLFIEYPTGSG [IRF2BPL_Y423] , AncSZ, phosphorylation enrichment = 0.636

Summary: DAPVVYLGSFG [PRAG1_Y132_R137G] , AncSZ, phosphorylation enrichment = 0.863

Summary: EQKKYSNAMKK [SCN5A_Y1495_Y1495S] , AncSZ, phosphorylation enrichment = 0.498

Summary: IDGLEYLHSQG [STK11_Y166] , AncSZ, phosphorylation enrichment = 0.737

Summary: SLIDGYFRLTE [JAK2_Y372_A377E_YF] , AncSZ, phosphorylation enrichment = 1.07

Summary: GASWRYGSGVS [NEU1_Y242] , AncSZ, phosphorylation enrichment = 0.637

Summary: LARDMDDKEFF [MET_Y1230_Y1230D_YF] , AncSZ, phosphorylation enrichment = 0.895

Summary: QEGPEYWDRET [HLA-A_Y83_Q86R] , AncSZ, phosphorylation enrichment = 2.03

Summary: FRPPYYHRNCM [HGD_Y334] , AncSZ, phosphorylation enrichment = 0.708

Summary: LEFGDYHPLKP [VPS35L_Y32] , AncSZ, phosphorylation enrichment = 2.75

Summary: RNDRVYQPLRD [CD3D_Y149_Q147R] , AncSZ, phosphorylation enrichment = 0.604

Summary: QFKDKYLAKHN [CASK_Y712_YF] , AncSZ, phosphorylation enrichment = 0.519

Summary: VVQGIYGYHHH [UFSP2_Y285_Y290H] , AncSZ, phosphorylation enrichment = 0.67

Summary: RGVTRYIYNRE [HLA-DQB1_Y62_Y58G] , AncSZ, phosphorylation enrichment = 1.34

Summary: PLDGEYFTLQV [TP53_Y327_I332V] , AncSZ, phosphorylation enrichment = 3.87

###

Record form. Attribute: phosphorylation enrichment. Fill in for each entry.
Tested on: c-Src
Test: phosphorylation enrichment, bacterial display (enrichment ratio); higher = better substrate or ligand; peptides without Tyr show the background
Hey, just send me the number, nothing else.

Memo: HVSISYDIPLT [GAB1_Y307_P311L] , reported phosphorylation enrichment: 1.01

Memo: PNRILYGDFQQ [MYH7_Y715_R719Q] , reported phosphorylation enrichment: 3.04

Memo: AVISVYDLVAV [PSEN1_Y256] , reported phosphorylation enrichment: 4.51

Memo: TVVGLYQKSSL [MYH7_Y609] , reported phosphorylation enrichment: 0.483

###

Test system: c-Src
Assay: phosphorylation enrichment, bacterial display (enrichment ratio); higher = better substrate or ligand; peptides without Tyr show the background
Record form. Attribute: phosphorylation enrichment. Fill in for each entry.
Hey, just send me the number, nothing else.

Memo: ILDEAYVMASV [EGFR_Y764] , reported phosphorylation enrichment: 0.612

Memo: EIKLAYRRRPP [GRIN2B_Y1109_E1106K] , reported phosphorylation enrichment: 0.885

Memo: SISYDYCRVPM [BST2_Y8_T4I] , reported phosphorylation enrichment: 1.17

Memo: RFLRGYRQFAF [HLA-A_Y137_D140Y_YF] , reported phosphorylation enrichment: 0.76

Memo: KNGSNYVVKGN [KIT_Y823_D820G] , reported phosphorylation enrichment: 0.482

Memo: FIGCIYLFLTK [GARS1_Y414_R412C_YF] , reported phosphorylation enrichment: 0.314

Memo: LWPIWYSCHRP [MRGPRX1_Y130_R131S] , reported phosphorylation enrichment: 0.601

Memo: PRSRSYSSTSI [REPS2_Y462] , reported phosphorylation enrichment: 1.33

Memo: GDEAIYATVAG [NRTKtide_2018] , reported phosphorylation enrichment: 7.59

###

Target: Jak2 (UniProt O60674)
Sequence (O60674 whole entry, looked up): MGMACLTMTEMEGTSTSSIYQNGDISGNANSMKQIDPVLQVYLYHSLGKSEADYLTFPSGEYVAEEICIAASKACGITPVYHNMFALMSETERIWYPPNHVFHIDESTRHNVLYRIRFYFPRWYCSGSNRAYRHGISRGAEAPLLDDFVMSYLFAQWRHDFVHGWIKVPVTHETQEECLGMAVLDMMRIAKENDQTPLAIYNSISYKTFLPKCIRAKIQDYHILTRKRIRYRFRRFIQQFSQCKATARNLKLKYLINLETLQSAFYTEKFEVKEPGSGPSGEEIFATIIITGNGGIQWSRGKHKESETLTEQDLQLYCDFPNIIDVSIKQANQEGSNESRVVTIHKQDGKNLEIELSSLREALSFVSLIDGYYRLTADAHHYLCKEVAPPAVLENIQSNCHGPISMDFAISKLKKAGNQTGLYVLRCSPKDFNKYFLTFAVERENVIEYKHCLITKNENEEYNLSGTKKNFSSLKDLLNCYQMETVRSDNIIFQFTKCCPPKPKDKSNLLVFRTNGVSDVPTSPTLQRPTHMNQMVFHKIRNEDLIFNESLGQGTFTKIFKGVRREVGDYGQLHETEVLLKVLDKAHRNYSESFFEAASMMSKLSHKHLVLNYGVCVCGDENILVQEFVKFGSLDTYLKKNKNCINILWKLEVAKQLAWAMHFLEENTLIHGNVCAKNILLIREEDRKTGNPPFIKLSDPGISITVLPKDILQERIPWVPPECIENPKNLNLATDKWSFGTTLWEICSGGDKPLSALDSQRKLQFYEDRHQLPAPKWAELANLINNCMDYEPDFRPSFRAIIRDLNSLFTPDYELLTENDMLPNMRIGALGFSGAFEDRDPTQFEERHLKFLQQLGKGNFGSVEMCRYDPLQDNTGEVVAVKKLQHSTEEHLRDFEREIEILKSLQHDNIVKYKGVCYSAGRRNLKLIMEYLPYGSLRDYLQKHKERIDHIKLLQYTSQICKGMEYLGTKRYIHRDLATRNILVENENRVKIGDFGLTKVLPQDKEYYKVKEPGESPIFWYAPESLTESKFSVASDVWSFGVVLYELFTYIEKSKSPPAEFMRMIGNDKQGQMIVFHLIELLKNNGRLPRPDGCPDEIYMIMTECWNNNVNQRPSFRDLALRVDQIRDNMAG
Assay: phosphorylation enrichment, bacterial display (enrichment ratio); higher = better substrate or ligand; peptides without Tyr show the background
Record form. Attribute: phosphorylation enrichment. Fill in for each entry.
Hey, just send me the number, nothing else.

Memo: VKANTYEKYWP [GATM_Y100] , reported phosphorylation enrichment: 0.728

Memo: LEYNEYFRDLN [HPRT1_Y198_D194E] , reported phosphorylation enrichment: 2.17

Memo: DASAVYLHDFQ [PLCG2_Y242] , reported phosphorylation enrichment: 0.792

// data source = the supplement of paper PMC10065799
